Property: soluble fraction (log2); scope: individual sequences
Assay: soluble fraction after stress (log2 fold change); higher = more stays soluble; pooled small domains, quantitative proteomics
Settings: stress: 50 degC
PARAMETER: soluble fraction (log2)

>  <ITEM_SEQUENCE>
HMVDDELTARRRVNLRRIADELGGAAAVARKTQKSVQQISSMLNGTKSFGSKIARDIEPKLGLPLQSLDKE

>  <PARAMETER>
soluble fraction (log2)

>  <REPORTED_MEASUREMENT>
0.128

$$$$
>  <ITEM_SEQUENCE>
HMTSVRVPVKKEIWFWAIKESQRDLNEILARFPKMDKWINQEENPTFNQLEKVAKFLRVPFGYMFLDKPPK

>  <PARAMETER>
soluble fraction (log2)

>  <REPORTED_MEASUREMENT>
-0.931

$$$$
>  <ITEM_SEQUENCE>
HMLKLEDIKKDAQVKGIVDGQIVRIVTVEPIGDHALTVYYKDHQGQFAERMLFRSDELNLELATA

>  <PARAMETER>
soluble fraction (log2)

>  <REPORTED_MEASUREMENT>
-0.00641

$$$$
>  <ITEM_SEQUENCE>
HMKYNYEAQQSDELSLVKGSRIHVLEKSSDGWWKGEIDNVVGWFPS

>  <PARAMETER>
soluble fraction (log2)

>  <REPORTED_MEASUREMENT>
-0.205

$$$$
